assay: chemical recovery from spiked human plasma; higher = better extraction; conditions: pooled human plasma; extraction method: SPE only (HLB 96-well)
Structures can show the parent of a compound that is named as a salt.
The threshold is inclusive: chemical recovery of exactly 40% counts as yes (1); values below receive no (0).

q: // inclusive: chemical recovery at least 40%? input: O=C(O)CCC(=O)c1ccc(F)cc1 [4-Fluorobenzoylpropionic acid]
a: yes (1)

q: // inclusive: chemical recovery at least 40%? input: CCCCCCCCCCCCOS(=O)(=O)O [Dodecyl sulfate]
a: no (0)

q: // inclusive: chemical recovery at least 40%? input: COC(=O)Nc1nc2ccccc2[nH]1 [Carbendazim]
a: yes (1)

q: // inclusive: chemical recovery at least 40%? input: O=C(O)C(F)(OC(F)(F)C(F)(F)C(F)(F)F)C(F)(F)F (stereo unspecified) [HFPO-DA]
a: no (0)

q: // inclusive: chemical recovery at least 40%? input: CNC(=O)Oc1ccccc1OC(C)C [Propoxur]
a: no (0)

q: // inclusive: chemical recovery at least 40%? input: O=S(=O)(c1ccc(Cl)cc1)c1ccc(Cl)cc1 [Bis(4-chlorophenyl)sulfone]
a: no (0)

q: // inclusive: chemical recovery at least 40%? input: CCCc1nc2c(C)cc(-c3nc4ccccc4n3C)cc2n1Cc1ccc(-c2ccccc2C(=O)O)cc1 [Telmisartan]
a: yes (1)

q: // inclusive: chemical recovery at least 40%? input: CN1C(=O)CN=C(c2ccccc2)c2cc(Cl)ccc21 [Diazepam]
a: yes (1)

q: // inclusive: chemical recovery at least 40%? input: CC(Oc1ccc(Oc2cnc3cc(Cl)ccc3n2)cc1)C(=O)O (stereo unspecified) [Quizalofop]
a: no (0)

q: // inclusive: chemical recovery at least 40%? input: CS(=O)(=O)c1ccc(C(=O)C2C(=O)CCCC2=O)c(Cl)c1 [Sulcotrione]
a: yes (1)

q: // inclusive: chemical recovery at least 40%? input: Oc1cc(-c2ccc(Cl)cc2)ccc1Cl [3-Hydroxy-4,4'-dichlorobiphenyl]
a: no (0)

q: // inclusive: chemical recovery at least 40%? input: C[C@@H](O)CCCCn1c(=O)c2c(ncn2C)n(C)c1=O [Lisofylline]
a: no (0)

q: // inclusive: chemical recovery at least 40%? input: Cc1ccc(OP(=O)(Oc2ccc(C)cc2)Oc2ccc(C)cc2)cc1 [Tricresylphosphate]
a: yes (1)

q: // inclusive: chemical recovery at least 40%? input: O=c1n(CC(Br)CBr)c(=O)n(CC(Br)CBr)c(=O)n1CC(Br)CBr (stereo unspecified) [Tris(2,3-dibromopropyl)isocyanurate]
a: no (0)

q: // inclusive: chemical recovery at least 40%? input: Oc1ccc(Cl)c2cccnc12 [5-Chloro-8-hydroxyquinoline]
a: no (0)

q: // inclusive: chemical recovery at least 40%? input: Nc1ccccc1-c1ccccc1 [2-Aminobiphenyl]
a: no (0)

q: // inclusive: chemical recovery at least 40%? input: CC[S+]([O-])CCSP(=O)(OC)OC (stereo unspecified) [Demeton-S-methyl-sulfoxide]
a: no (0)

q: // inclusive: chemical recovery at least 40%? input: c1ccc2c(c1)ccc1c3ccccc3ccc21 [Chrysene]
a: no (0)

q: // inclusive: chemical recovery at least 40%? input: O=C(O)CCCCCCCCC(=O)O [Sebacic-acid]
a: yes (1)

q: // inclusive: chemical recovery at least 40%? input: C[N+](C)(C)CC(O)CCl (stereo unspecified) [(3-Chloro-2-hydroxypropyl)trimethylammonium]
a: no (0)

q: // inclusive: chemical recovery at least 40%? input: C[C@H](CCC(=O)O)[C@H]1CC[C@H]2[C@@H]3[C@H](O)C[C@@H]4C[C@H](O)CC[C@]4(C)[C@H]3CC[C@]12C [Chenodeoxycholic-acid]
a: no (0)

q: // inclusive: chemical recovery at least 40%? input: Nc1nc(=O)n([C@@H]2CS[C@H](CO)O2)cc1F [Emtricitabine]
a: no (0)

q: // inclusive: chemical recovery at least 40%? input: Cc1cccc(Nc2ccccc2C(=O)O)c1C [Mefenamic acid]
a: yes (1)

q: // inclusive: chemical recovery at least 40%? input: CC(=O)c1cc(C(C)(C)C)c(O)c(C(C)(C)C)c1 [3,5-Di-tert-butyl-4'-hydroxyacetophenone]
a: no (0)

q: // inclusive: chemical recovery at least 40%? input: Nc1ccc2c(n1)[nH]c1ccccc12 [2-Amino-9H-pyrido[2,3-b]indole-(AalphaC)]
a: no (0)

* * *

experiment: chemical recovery into PDMS from spiked human plasma; higher = better extraction; details: pooled human plasma; extraction method: PES with PDMS; equilibration time (d): 3
property_name: chemical recovery into PDMS (%)
# number only, unit % dropped from output

compound | property_name | experimental_value
CC1(C)CC(N)CC(C)(CN)C1 (stereo unspecified) | chemical recovery into PDMS | 0.0508
CC1(C)CCC(Cc2ccc(Cl)cc2)C1(O)Cn1cncn1 (stereo unspecified) | chemical recovery into PDMS | 41.9
O=C(O)C(F)(F)C(F)(F)C(F)(F)C(F)(F)C(F)(F)C(F)(F)F | chemical recovery into PDMS | 0.00647
CC(C)Nc1nc(N)nc(Cl)n1 | chemical recovery into PDMS | 16.9
Clc1cc(Cl)c(-c2c(Cl)ccc(Cl)c2Cl)cc1Cl | chemical recovery into PDMS | 103

The recorded chemical recovery into PDMS for CN/C(=N\[N+](=O)[O-])NCc1cnc(Cl)s1 is 1.39

The recorded chemical recovery into PDMS for OC(c1ccc(Cl)cc1)(c1ccc(Cl)cc1)C(Cl)(Cl)Cl is 56.9

* * *

Measured chemical recovery into PDMS by item
assay: chemical recovery into PDMS from spiked human plasma; higher = better extraction; details: pooled human plasma; extraction method: PES with PDMS; equilibration time (d): 6
# number only, unit % dropped from output

Guide cases for chemical recovery into PDMS, answers given:
molecule | chemical recovery into PDMS (%)
c1ccc2c(c1)[nH]c1cnccc12 [Norharmane] | 29
CC(C)(C)C(O)C(Oc1ccc(Cl)cc1)n1cncn1 (centres undefined) [Triadimenol] | 43.6
C[C@]12CC[C@H]3[C@@H](CCC4=CC(=O)CC[C@@]43C)[C@@H]1CC[C@@H]2O [Testosterone] | 35.6
Cc1cccc(C)c1N(Cn1cccn1)C(=O)C(=O)O [Metazachlor OA] | 0.0244
Fc1ccc([C@]2(Cn3cncn3)O[C@H]2c2ccccc2Cl)cc1 (racemic) [Epoxiconazole] | 46.5
CC(=O)OCC(=O)[C@@]12OC3(CCCC3)O[C@@H]1C[C@H]1[C@@H]3CCC4=CC(=O)C=C[C@]4(C)[C@@]3(F)[C@@H](O)C[C@@]12C [Amcinonide] | 35.6

The recorded chemical recovery into PDMS for CC(COc1ccc(Oc2ccccc2)cc1)Oc1ccccn1 (centres undefined) [Pyriproxyfen] is 49.3

The recorded chemical recovery into PDMS for C#CC(C)(C)NC(=O)c1cc(Cl)cc(Cl)c1 [Propyzamide] is 39.4

The recorded chemical recovery into PDMS for CC(C)Nc1nc(N)nc(Cl)n1 [Desethylatrazine] is 18.5

* * *

test: chemical recovery by SPE of plasma after PDMS sampling; higher = better extraction; settings: pooled human plasma; extraction method: HLB SPE of plasma after PES; equilibration time (d): 1
The threshold is inclusive: chemical recovery by SPE of plasma of exactly 30% counts as 1; values below receive 0.

compound | classification
CC(=O)[C@@]1(O)CC[C@H]2[C@@H]3C=C(Cl)C4=CC(=O)[C@@H]5C[C@@H]5[C@]4(C)[C@H]3CC[C@@]21C [Cyproterone] | 0
Clc1ccc(Cl)c(-c2cc(Cl)ccc2Cl)c1 [PCB52] | 0
O=C(O)C(F)(F)C(F)(F)C(F)(F)C(F)(F)C(F)(F)C(F)(F)C(F)(F)C(F)(F)C(F)(F)F [Perfluorodecanoic acid] | 0
O=C(O)CCC(=O)c1ccc(F)cc1 [4-Fluorobenzoylpropionic acid] | 1
NC(=O)N=C(N)N [Guanylurea] | 0

q: // inclusive: chemical recovery by SPE of plasma at least 30%? input: CCCNCCOc1c(Cl)cc(Cl)cc1Cl [Prochloraz BTS403-48]
a: 0

q: // inclusive: chemical recovery by SPE of plasma at least 30%? input: CCNC(=O)[C@@H](C)OC(=O)Nc1ccccc1 [Carbetamide]
a: 1

q: // inclusive: chemical recovery by SPE of plasma at least 30%? input: CCCCCCCCCCCC[N+](C)(C)[O-] [N,N-Dimethyldodecylamine N-oxide]
a: 0

q: // inclusive: chemical recovery by SPE of plasma at least 30%? input: CS(=O)(=O)c1ccc(C(=O)C2C(=O)CCCC2=O)c(Cl)c1 [Sulcotrione]
a: 1

q: // inclusive: chemical recovery by SPE of plasma at least 30%? input: C[C@]12CC[C@H]3[C@@H](CCC4=CC(=O)CC[C@@]43C)[C@@H]1CC[C@@H]2O [Testosterone]
a: 0

q: // inclusive: chemical recovery by SPE of plasma at least 30%? input: O=Cc1ccccc1Nc1ccccc1Cl [2-(2-(Chlorophenyl)amino)benzaldehyde]
a: 0
